measurementTarget: human V1a receptor (Homo sapiens)
Construct: expressed in transfected cells; host or cells: HEK293 cells, transiently transfected; membranes prepared
protocolText: human V1a receptor binding (3H-Vasopressin SPA, membranes of transfected HEK293 cells)
assayConditions: displacement of 4 nM 3H-Vasopressin, HEK293 cell membranes, Ki by Cheng-Prussoff from IC50; read-out: Ki
measurementKind: Ki (nM)
Reply numerically in nM, unit not repeated.

>  <molecule>
COc1cccc(OC)c1C1CCN(C(=O)c2cn(CC(=O)N(C)C)c3ccccc23)CC1

>  <Ki [nM]>
11

$$$$
>  <molecule>
CN(C)C(=O)Cn1cc(C(=O)N2CCN(c3ncccc3C(F)(F)F)CC2)c2ccc(Cl)cc21

>  <Ki [nM]>
13

$$$$

Reported Ki for COc1cccc(OC)c1C1CCN(C(=O)c2cn(Cc3cccnc3)c3cc(Cl)ccc23)CC1 was 7

Reported Ki for CNC(=O)Cn1cc(C(=O)N2CCC(c3ccccc3OC(F)(F)F)CC2)c2ccc(Cl)cc21 was 8

====

measurementTarget: human V1a receptor (Homo sapiens, UniProt P37288)
Construct: expressed in transfected cells; host or cells: HEK293 cells, transiently transfected; membranes prepared
Sequence (P37288 whole entry): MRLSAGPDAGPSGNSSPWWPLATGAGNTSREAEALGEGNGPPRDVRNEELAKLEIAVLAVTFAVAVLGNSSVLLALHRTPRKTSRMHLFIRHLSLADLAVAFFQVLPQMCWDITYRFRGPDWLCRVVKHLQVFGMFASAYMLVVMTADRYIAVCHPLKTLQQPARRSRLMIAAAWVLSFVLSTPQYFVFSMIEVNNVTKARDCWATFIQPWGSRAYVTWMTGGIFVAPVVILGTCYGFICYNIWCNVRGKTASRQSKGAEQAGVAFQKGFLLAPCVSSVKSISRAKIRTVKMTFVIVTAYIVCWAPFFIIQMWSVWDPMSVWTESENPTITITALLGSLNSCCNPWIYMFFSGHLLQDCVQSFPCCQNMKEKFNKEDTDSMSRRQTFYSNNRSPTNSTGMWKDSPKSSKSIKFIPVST
protocolText: human V1a receptor binding (3H-Vasopressin SPA, membranes of transfected HEK293 cells)
measurementKind: pKi
Entry type: numeric. Quantity: pKi, the -log10 of concentration in molar units.

Solved cases (3 shown):
>  <compoundSmiles>
CC(=O)NCCn1cc(C(=O)N2CCN(c3ccccc3F)CC2)c2ccc(Cl)cc21

>  <pKi>
7.68

$$$$
>  <compoundSmiles>
CN1CCC[C@@H]1Cn1cc(C(=O)N2CCN(c3ccccc3F)CC2)c2ccc(Cl)cc21

>  <pKi>
8.22

$$$$
>  <compoundSmiles>
COc1cccc(OC)c1C1CCN(C(=O)c2cn(Cc3ccccn3)c3cc(Cl)ccc23)CC1

>  <pKi>
8.40

$$$$

# next compound below
Reported pKi for COc1ccccc1C1CCN(C(=O)c2cn(Cc3cc(F)cc(F)c3)c3cc(Cl)ccc23)CC1 was 8.70

====

Listed below: pKi values for each entry.
measurementTarget: human V1a receptor (Homo sapiens)
Construct: expressed in transfected cells; host or cells: HEK293 cells, transiently transfected; membranes prepared
protocolText: human V1a receptor binding (3H-Vasopressin SPA, membranes of transfected HEK293 cells)
Entry type: numeric. Quantity: pKi, the -log10 of concentration in molar units.

Solved cases (6 shown):
>  <compoundSmiles>
Cc1c(C(=O)N2CCC(c3ccccc3)CC2)c2ccccc2n1Cc1ccccc1

>  <pKi>
8.00

$$$$
>  <compoundSmiles>
COc1cccc(OC)c1C1CCN(C(=O)c2cn(Cc3cnccn3)c3cc(Cl)ccc23)CC1

>  <pKi>
8.40

$$$$
>  <compoundSmiles>
CN(C)CCn1cc(C(=O)N2CCC(c3cccc4c3OCC4)CC2)c2ccc(Cl)cc21

>  <pKi>
8.40

$$$$
>  <compoundSmiles>
CN(C)C(=O)Cn1cc(C(=O)N2CCC(C#N)(c3ccccc3F)CC2)c2ccc(Cl)cc21

>  <pKi>
7.89

$$$$
>  <compoundSmiles>
COc1ccccc1C1=CCN(C(=O)c2c(C)n(Cc3ccccc3)c3ccccc23)CC1

>  <pKi>
7.85

$$$$
>  <compoundSmiles>
CN1CCC[C@H]1Cn1cc(C(=O)N2CCN(c3ccccc3F)CC2)c2ccc(Cl)cc21

>  <pKi>
8.70

$$$$

# next compound below
Tested on human V1a receptor (Homo sapiens), the item COc1ccccc1N1CCN(C(=O)c2cn(CC(=O)N3CCN(C)CC3)c3cc(Cl)ccc23)CC1 showed pKi equal to 7.64

====

measurementTarget: human V1a receptor (Homo sapiens, UniProt P37288)
Construct: expressed in transfected cells; host or cells: HEK293 cells, transiently transfected; membranes prepared
protocolText: human V1a receptor binding (3H-Vasopressin SPA, membranes of transfected HEK293 cells)
assayConditions: displacement of 4 nM 3H-Vasopressin, HEK293 cell membranes, Ki by Cheng-Prussoff from IC50; read-out: Ki
Listed below: Ki values for each entry.
Reply numerically in nM, unit not repeated.

Solved cases (3 shown):
>  <compound>
COc1cccc(OC)c1C1CCN(C(=O)c2c[nH]c3cc(Cl)ccc23)CC1 [Example 40]

>  <Ki, nM>
8

$$$$
>  <compound>
COc1cccc(OC)c1C1CCN(C(=O)c2cn(CC(=O)N(C)C)c3cc(Cl)ccc23)CC1 [Example 43]

>  <Ki, nM>
2

$$$$
>  <compound>
CN(C)C(=O)Cn1cc(C(=O)N2CCC(c3cccc4c3OCC4)CC2)c2ccc(Cl)cc21 [Example 72]

>  <Ki, nM>
3

$$$$

Reported Ki for CNC(=O)Cn1cc(C(=O)N2CCC(c3c(OC)cccc3OC)CC2)c2ccc(Cl)cc21 [Example 82] was 2

Reported Ki for CN(C)CCn1cc(C(=O)N2CCC(c3ccccc3F)CC2)c2ccc(Cl)cc21 [Example 115] was 11

Reported Ki for CN1CCN(C(=O)Cn2cc(C(=O)N3CCC(c4ccccc4F)CC3)c3ccc(Cl)cc32)CC1 [Example 117] was 6

Reported Ki for CNC(=O)Cn1cc(C(=O)N2CCC(c3ccccc3C(F)(F)F)CC2)c2ccc(Cl)cc21 [Example 96] was 11

Reported Ki for COc1ccccc1C1CCN(C(=O)c2cn(CC(=O)N(C)C)c3cc(Cl)ccc23)CC1 [Example 57] was 2

====

Listed below: Ki values for each entry.
measurementTarget: human V1a receptor (Homo sapiens, UniProt P37288)
Construct: expressed in transfected cells; host or cells: HEK293 cells, transiently transfected; membranes prepared
protocolText: human V1a receptor binding (3H-Vasopressin SPA, membranes of transfected HEK293 cells)
Reply numerically in µM, unit not repeated.

>  <compoundSmiles>
O=C(c1cn(C[C@@H]2CCCN2)c2cc(Cl)ccc12)N1CCN(c2ccccc2F)CC1

>  <Ki, µM>
0.021

$$$$
>  <compoundSmiles>
CNC(=O)Cn1cc(C(=O)N2CCN(c3nccc4sccc34)CC2)c2ccc(Cl)cc21

>  <Ki, µM>
0.027

$$$$
>  <compoundSmiles>
COc1cccc(OC)c1C1CCN(C(=O)c2cn(CC(N)=O)c3cc(Cl)ccc23)CC1

>  <Ki, µM>
0.013

$$$$

Reported Ki for COc1ccccc1C1(C#N)CCN(C(=O)c2cn(CC(=O)N(C)C)c3cc(Cl)ccc23)CC1 was 0.008

====

measurementTarget: human V1a receptor (Homo sapiens)
Construct: expressed in transfected cells; host or cells: HEK293 cells, transiently transfected; membranes prepared
protocolText: human V1a receptor binding (3H-Vasopressin SPA, membranes of transfected HEK293 cells)
assayConditions: displacement of 4 nM 3H-Vasopressin, HEK293 cell membranes, Ki by Cheng-Prussoff from IC50; read-out: Ki
Where a name gives a salt, the structure may show the parent alone.
For each record, check the reported Ki: if it is below 10 nM write yes, else write no.

Before answering, review these 4 worked examples.
>  <compound>
CNC(=O)Cn1cc(C(=O)N2CCC(c3ccccc3OC)CC2)c2ccc(Cl)cc21

>  <assignedClass>
yes

$$$$
>  <compound>
CNC(=O)Cn1cc(C(=O)N2CCN(c3ccccc3OC)CC2)c2ccc(Cl)cc21

>  <assignedClass>
no

$$$$
>  <compound>
CNC(=O)Cn1cc(C(=O)N2CCN(c3ncccc3C(F)(F)F)CC2)c2ccc(Cl)cc21

>  <assignedClass>
no

$$$$
>  <compound>
O=C(Cn1cc(C(=O)N2CCC(c3ccccc3F)CC2)c2ccc(Cl)cc21)N1CCNCC1 [Example 118, hydrochloride]

>  <assignedClass>
no

$$$$

Read the next record carefully.
input: Item COc1cccc(OC)c1C1CCN(C(=O)c2cn(CC(=O)c3ccccn3)c3cc(Cl)ccc23)CC1 : Ki beneath 10 nM, strictly?
output: yes
